Target: human recombinant PDE10A (Homo sapiens)
Construct: made in house; host or cells: SF21 insect cells (baculovirus)
Sequence (Q9Y233 1-779 isoform Q9Y233-1): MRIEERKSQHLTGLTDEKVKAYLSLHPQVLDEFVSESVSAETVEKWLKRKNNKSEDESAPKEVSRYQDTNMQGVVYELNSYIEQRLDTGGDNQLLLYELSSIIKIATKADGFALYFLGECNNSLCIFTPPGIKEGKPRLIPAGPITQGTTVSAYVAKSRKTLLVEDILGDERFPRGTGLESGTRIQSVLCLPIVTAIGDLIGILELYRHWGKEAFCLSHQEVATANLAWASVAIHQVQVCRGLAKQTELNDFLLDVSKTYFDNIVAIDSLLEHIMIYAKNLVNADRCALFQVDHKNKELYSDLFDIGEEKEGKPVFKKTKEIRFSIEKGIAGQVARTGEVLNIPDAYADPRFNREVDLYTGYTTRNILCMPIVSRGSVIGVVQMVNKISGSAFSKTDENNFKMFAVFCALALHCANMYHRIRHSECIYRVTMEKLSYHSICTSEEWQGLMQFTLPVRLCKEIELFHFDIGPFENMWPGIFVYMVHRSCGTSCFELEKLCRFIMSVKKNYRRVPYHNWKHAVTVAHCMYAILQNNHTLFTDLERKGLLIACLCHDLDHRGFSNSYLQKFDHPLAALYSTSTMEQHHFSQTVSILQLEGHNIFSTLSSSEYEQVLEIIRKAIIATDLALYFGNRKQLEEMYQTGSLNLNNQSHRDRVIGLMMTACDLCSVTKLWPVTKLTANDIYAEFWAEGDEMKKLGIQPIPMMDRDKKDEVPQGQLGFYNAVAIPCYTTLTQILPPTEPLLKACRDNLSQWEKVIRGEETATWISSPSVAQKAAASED
Assay: Inhibition of PDE10, human recombinant PDE10A ([3H]-cAMP SPA)
Assay type: biochemical
Details: Table 7; read-out: Human PDE10 (IC50 nM)
endpointLabel: IC50

COc1ccc(Cl)c(-c2nc(C)c3c(C)nc4ccc(OC)nc4n23)c1	10 to 100 nM
COc1ccc2nc(C)c3c(C)nc(-c4cnc(F)c(C)c4)n3c2n1	10 to 100 nM
COc1ccc2nc(C)c3c(C(F)(F)F)nc(-c4cnccc4OC)n3c2n1	> 100 nM
COc1ccc2nc(NS(C)(=O)=O)c3c(C(F)(F)F)nc(-c4ccccc4C)n3c2n1	< 10 nM
COc1ccc2nc(C)c3c(C)nc(-c4cc(C(F)(F)F)ccc4Cl)n3c2n1	< 10 nM
